Test system: Hep-3B cells
assay_procedure: Cellular assay: erythropoietin secretion in Hep-3B cells
Type: cell-based, human
condition_info: Homo sapiens, Hep3B, 100 μM compound, 24 hours, percent of EPO secretion relative to assay control compound 7-[(4-Chloro-phenyl)-(5-methyl-isoxazol-3-ylamino)-methyl]-quinolin-8-ol, read-out: Cellular % EPO Stimulation
Counter-ions that a name gives are not always drawn.
Note to self: class = bucket of Emax at 100 µM, per Low = under 20%, Mid = from 20% up to 40%, High = 40% and over

{"compound": "O=C(O)c1cnn(-c2nc3ccc(-c4ccc(Cl)cc4)cc3c(=O)[nH]2)c1", "group": "High"}
{"compound": "O=C(O)c1cnn(-c2nc3cc(Sc4ccc(Cl)cc4)ccc3c(=O)[nH]2)c1", "group": "Low"}
{"compound": "CSc1cc2c(=O)[nH]c(-n3cc(C(=O)O)cn3)nc2cc1Cl", "group": "Low"}
{"compound": "CS(=O)(=O)Nc1ccc2nc(-n3cc(C(=O)O)cn3)[nH]c(=O)c2c1", "group": "Low"}
{"compound": "O=C(O)c1cnn(-c2nc3cc(Cl)c(Cl)cc3c(=O)[nH]2)c1", "group": "Mid"}
{"compound": "O=C(O)c1cnn(-c2nc3cc(F)c(F)cc3c(=O)[nH]2)c1 [Example 5, trifluoroacetate salt]", "group": "Mid"}
{"compound": "Cc1ccc(Oc2cc3c(=O)[nH]c(-n4cc(C(=O)O)cn4)nc3cc2C)cc1C", "group": "High"}
{"compound": "CC(C)c1cccc2c(=O)[nH]c(-n3cc(C(=O)O)cn3)nc12", "group": "Low"}
{"compound": "N#Cc1cccc(CNc2ccc3nc(-n4cc(C(=O)O)cn4)[nH]c(=O)c3c2)c1", "group": "Low"}
{"compound": "Cc1cc2nc(-n3cc(C(=O)O)cn3)[nH]c(=O)c2cc1Oc1c(C)cccc1C", "group": "Low"}
{"compound": "O=C(O)c1cnn(-c2nc3ccc(-c4cccc(Cl)c4)cc3c(=O)[nH]2)c1", "group": "High"}
{"compound": "O=C(O)c1cnn(-c2nc3ccc(NS(=O)(=O)c4ccccc4)cc3c(=O)[nH]2)c1", "group": "Mid"}
{"compound": "O=C(O)c1cnn(-c2nc3cc(Cl)c(Oc4cccc5ccccc45)cc3c(=O)[nH]2)c1", "group": "High"}
{"compound": "Cc1cccc(C)c1NC(=O)c1ccc2nc(-n3cc(C(=O)O)cn3)[nH]c(=O)c2c1", "group": "Low"}
{"compound": "O=C(O)c1cnn(-c2nc3cc4c(cc3c(=O)[nH]2)OCCCO4)c1", "group": "Low"}
{"compound": "Cc1cc2nc(-n3cc(C(=O)O)cn3)[nH]c(=O)c2cc1Oc1cc(Cl)ccc1Cl", "group": "High"}

###

target_or_system: human PHD2 (PHD2181-417) (Homo sapiens)
Construct: Smt (SUMO) tag (cleaved yes); made in house; host or cells: E. coli BL21 (pBAD vector)
assay_procedure: PHD enzymatic assay ([14C]-succinic acid production)
Format: biochemical
condition_info: PHD2181-417, HIF-1α peptide 10 μM, average of results; read-out: Enzyme pIC50 (converted)
Procedure: Protein production was achieved by expression in BL21 cells grown in Terrific Broth containing 100 μg/ml ampicillin. Cell cultures were inoculated at 37° C. and grown to an OD600 of 0.8. Cultures were induced with 0.1% arabinose and grown overnight at 20° C. with continuous shaking at 225 rpm. Cells were then harvested by centrifugation and stored at −80° C. […]
readout_kind: IC50 (nM)

{"smi": "CC(C)c1ccc2c(=O)[nH]c(-n3cc(C(=O)O)cn3)nc2c1", "reported_result": 126}
{"smi": "O=C(O)c1cnn(-c2nc3ccc(Oc4cccnc4)cc3c(=O)[nH]2)c1", "reported_result": 25.1}
{"smi": "O=C(O)c1cnn(-c2nc(=O)c3cc(Sc4ccccc4)c(Cl)cc3[nH]2)c1", "reported_result": 39.8}
{"smi": "O=C(O)c1cnn(-c2nc3ccc(SC(F)(F)F)cc3c(=O)[nH]2)c1", "reported_result": 31.6}
{"smi": "O=C(O)c1cnn(-c2nc3ccc(Oc4ccc(Cl)cc4)cc3c(=O)[nH]2)c1", "reported_result": 31.6}
{"smi": "Cc1cccc(Oc2ccc3nc(-n4cc(C(=O)O)cn4)[nH]c(=O)c3c2)c1", "reported_result": 39.8}
{"smi": "COc1cccc2c(=O)[nH]c(-n3cc(C(=O)O)cn3)nc12", "reported_result": 158}
{"smi": "O=C(O)c1cnn(-c2nc3ccc(-c4ccccc4F)cc3c(=O)[nH]2)c1", "reported_result": 25.1}
{"smi": "CS(=O)(=O)Nc1ccc2nc(-n3cc(C(=O)O)cn3)[nH]c(=O)c2c1", "reported_result": 31.6}
{"smi": "O=C(O)c1cnn(-c2nc3cc(C(F)(F)F)ccc3c(=O)[nH]2)c1", "reported_result": 158}
{"smi": "CS(=O)(=O)c1ccc2nc(-n3cc(C(=O)O)cn3)[nH]c(=O)c2c1", "reported_result": 31.6}
{"smi": "O=C(O)c1cnn(-c2nc3cc(S(=O)(=O)c4ccccc4)ccc3c(=O)[nH]2)c1", "reported_result": 79.4}
{"smi": "O=C(O)c1cnn(-c2nc3cc(F)c(Oc4c(Cl)cccc4Cl)c(F)c3c(=O)[nH]2)c1", "reported_result": 25.1}
{"smi": "O=C(O)c1cnn(-c2nc3ccc(Oc4cccc(F)c4)cc3c(=O)[nH]2)c1", "reported_result": 25.1}
{"smi": "N#Cc1cccc(CNc2ccc3nc(-n4cc(C(=O)O)cn4)[nH]c(=O)c3c2)c1", "reported_result": 20}
{"smi": "O=C(O)c1cnn(-c2nc3ccc(-c4ccccc4Cl)cc3c(=O)[nH]2)c1", "reported_result": 31.6}
{"smi": "O=C(O)c1cnn(-c2nc3ccc(-c4ccc5cc[nH]c5c4)cc3c(=O)[nH]2)c1", "reported_result": 25.1}

###

System: Hep-3B cells
assay_procedure: Cellular assay: erythropoietin secretion in Hep-3B cells
Type: cell-based, human
condition_info: Homo sapiens, Hep3B, 100 μM compound, 24 hours, percent of EPO secretion relative to assay control compound 7-[(4-Chloro-phenyl)-(5-methyl-isoxazol-3-ylamino)-methyl]-quinolin-8-ol, read-out: Cellular % EPO Stimulation
// values below are reported Emax at 100 µM

{"compound": "O=C(O)c1cnn(-c2nc3ccc(NCc4ccccc4)cc3c(=O)[nH]2)c1 [Example 171]", "Emax at 100 µM [%]": 34}
{"compound": "N#Cc1ccccc1CNc1ccc2nc(-n3cc(C(=O)O)cn3)[nH]c(=O)c2c1 [Example 177]", "Emax at 100 µM [%]": 13}
{"compound": "COc1cc2nc(-n3cc(C(=O)O)cn3)[nH]c(=O)c2cc1OC [Example 17]", "Emax at 100 µM [%]": 33}
{"compound": "Cc1ccccc1-c1ccc2c(=O)[nH]c(-n3cc(C(=O)O)cn3)nc2c1 [Example 188]", "Emax at 100 µM [%]": 11}
{"compound": "O=C(O)c1cnn(-c2nc3cc(F)c(Oc4ccc5ccccc5c4)cc3c(=O)[nH]2)c1 [Example 52]", "Emax at 100 µM [%]": 76}
{"compound": "O=C(O)c1cnn(-c2nc3cc(O)ccc3c(=O)[nH]2)c1 [Example 154]", "Emax at 100 µM [%]": 12}
{"compound": "O=C(O)c1cnn(-c2nc3c(Oc4ccccc4)cccc3c(=O)[nH]2)c1 [Example 112]", "Emax at 100 µM [%]": 18}
{"compound": "O=C(O)c1cnn(-c2nc3ccc4[nH]ccc4c3c(=O)[nH]2)c1 [Example 23]", "Emax at 100 µM [%]": 33}
{"compound": "O=C(O)c1cnn(-c2nc(=O)c3cc(Sc4ccccc4)c(Cl)cc3[nH]2)c1 [Example 25]", "Emax at 100 µM [%]": 68}
{"compound": "O=C(O)c1cnn(-c2nc3ccc(-c4cccc5c4OCCO5)cc3c(=O)[nH]2)c1 [Example 204]", "Emax at 100 µM [%]": 111}
{"compound": "O=C(O)c1cnn(-c2nc3cc4c(cc3c(=O)[nH]2)OCCO4)c1 [Example 139]", "Emax at 100 µM [%]": 15}

###

// values below are reported IC50
target_or_system: human PHD2 (PHD2181-417) (Homo sapiens, UniProt Q9GZT9)
Construct: Smt (SUMO) tag (cleaved yes); made in house; host or cells: E. coli BL21 (pBAD vector)
Sequence (Q9GZT9 181-417): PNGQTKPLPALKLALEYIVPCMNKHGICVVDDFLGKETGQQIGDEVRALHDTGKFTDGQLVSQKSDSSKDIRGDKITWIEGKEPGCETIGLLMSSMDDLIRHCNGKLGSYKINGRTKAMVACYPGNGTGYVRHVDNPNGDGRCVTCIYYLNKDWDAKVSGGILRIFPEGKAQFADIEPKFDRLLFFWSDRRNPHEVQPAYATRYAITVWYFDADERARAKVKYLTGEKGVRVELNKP
assay_procedure: PHD enzymatic assay ([14C]-succinic acid production)
Assay type: biochemical
condition_info: PHD2181-417, HIF-1α peptide 10 μM, average of results; read-out: Enzyme pIC50 (converted)
readout_kind: IC50 (nM)

{"smi": "O=C(Nc1ccccc1)Nc1ccc2nc(-n3cc(C(=O)O)cn3)[nH]c(=O)c2c1", "target_or_system": "human PHD2 (PHD2181-417) (Homo sapiens, UniProt Q9GZT9)", "reported_result": 31.6}
{"smi": "Cc1cc(C)c2c(=O)[nH]c(-n3cc(C(=O)O)cn3)nc2c1", "target_or_system": "human PHD2 (PHD2181-417) (Homo sapiens, UniProt Q9GZT9)", "reported_result": 398}
{"smi": "O=C(O)c1cnn(-c2nc3cc(S(=O)(=O)c4ccccc4Cl)ccc3c(=O)[nH]2)c1", "target_or_system": "human PHD2 (PHD2181-417) (Homo sapiens, UniProt Q9GZT9)", "reported_result": 100}
{"smi": "C#Cc1ccc2nc(-n3cc(C(=O)O)cn3)[nH]c(=O)c2c1", "target_or_system": "human PHD2 (PHD2181-417) (Homo sapiens, UniProt Q9GZT9)", "reported_result": 31.6}
{"smi": "O=C(O)c1cnn(-c2nc3ccc(Oc4cc(Cl)ccc4Cl)cc3c(=O)[nH]2)c1", "target_or_system": "human PHD2 (PHD2181-417) (Homo sapiens, UniProt Q9GZT9)", "reported_result": 25.1}
{"smi": "O=C(O)c1cnn(-c2nc3ccc(N4CCCC4)cc3c(=O)[nH]2)c1", "target_or_system": "human PHD2 (PHD2181-417) (Homo sapiens, UniProt Q9GZT9)", "reported_result": 39.8}
{"smi": "N#Cc1ccccc1CNc1ccc2nc(-n3cc(C(=O)O)cn3)[nH]c(=O)c2c1", "target_or_system": "human PHD2 (PHD2181-417) (Homo sapiens, UniProt Q9GZT9)", "reported_result": 50.1}
{"smi": "O=C(O)c1cnn(-c2nc3c(-c4ccccc4)cccc3c(=O)[nH]2)c1", "target_or_system": "human PHD2 (PHD2181-417) (Homo sapiens, UniProt Q9GZT9)", "reported_result": 126}
{"smi": "CC(=O)Nc1ccc2nc(-n3cc(C(=O)O)cn3)[nH]c(=O)c2c1", "target_or_system": "human PHD2 (PHD2181-417) (Homo sapiens, UniProt Q9GZT9)", "reported_result": 31.6}
